Here the recorded EC50 is given for each entry.
# measurement.target: mu opioid receptor (MOR) (Homo sapiens)
# Sequence (P35372 whole entry): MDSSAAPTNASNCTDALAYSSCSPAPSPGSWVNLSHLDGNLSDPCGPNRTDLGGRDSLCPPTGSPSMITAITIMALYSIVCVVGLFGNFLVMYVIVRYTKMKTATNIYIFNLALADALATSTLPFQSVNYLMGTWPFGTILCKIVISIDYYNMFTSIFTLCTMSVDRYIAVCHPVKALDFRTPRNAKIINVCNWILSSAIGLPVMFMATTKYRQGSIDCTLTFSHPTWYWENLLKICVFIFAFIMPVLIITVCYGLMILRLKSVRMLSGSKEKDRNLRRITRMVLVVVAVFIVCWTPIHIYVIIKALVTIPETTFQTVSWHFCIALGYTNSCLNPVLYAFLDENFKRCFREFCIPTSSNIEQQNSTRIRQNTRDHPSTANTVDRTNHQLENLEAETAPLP
# test.details: Hit Hunter cAMP signaling assay (adenylyl cyclase inhibition), PAM mode with EC20 endomorphin-1
# Format: cell-based
# experimental.setup: adenylyl cyclase inhibition; read-out: cAMP EC50

- molecule: "Fc1cc(C2CCCCCN2c2nc(Cl)ncc2F)cc(C(F)(F)F)c1 (stereo not shown)"
  EC50: "> 2100 nM"
- molecule: "O=S(=O)(c1ccc(Cl)cc1)N1CCCCC1c1cccc(Cl)c1 (racemic)"
  EC50: "> 2100 nM"
- molecule: "CC1CCN(S(=O)(=O)c2ccc(Cl)cc2)C1c1ccc(OC(F)(F)F)c(Br)c1 (mixture of isomers)"
  EC50: "< 700 nM"
- molecule: "CCCC1(F)CCCN(c2nc(Cl)ncc2F)C1c1cccc(C(F)(F)F)c1 (stereo not shown)"
  EC50: "> 2100 nM"
- molecule: "Fc1cnc(Cl)nc1N1CC(C(F)(F)F)CC1c1cccc(C(F)(F)F)c1 (stereo not shown)"
  EC50: "> 2100 nM"
- molecule: "COc1ccc(C2CC(F)(F)CN2c2nc(Cl)ncc2F)cc1Br (stereo not shown)"
  EC50: "> 2100 nM"
- molecule: "O=S(=O)(c1ccc(Cl)cc1)N1CCCC(F)C1c1ccc(F)c(Br)c1 (stereo not shown)"
  EC50: "> 2100 nM"
- molecule: "N#Cc1cc(C2CCCCN2S(=O)(=O)c2ccc(Cl)cc2)ccc1F (racemic)"
  EC50: "> 2100 nM"
- molecule: "Fc1ccc(C2CC=CCN2c2nc(Cl)ncc2F)cc1Br (stereo not shown)"
  EC50: "< 700 nM"
- molecule: "Fc1cc(C2COCCN2c2nc(Cl)ncc2F)cc(C(F)(F)F)c1 (single isomer, unassigned) [Compound 347]"
  EC50: "< 700 nM"
- molecule: "Fc1ccc(C2CCCCN2c2nc(Cl)ncc2F)cc1Cl (single isomer, unassigned) [compound 343]"
  EC50: "< 700 nM"
- molecule: "O=S(=O)(c1cccc(Cl)c1F)N1CCCCC1c1cccc(C(F)(F)F)c1 (stereo not shown)"
  EC50: "700 to 2100 nM"
- molecule: "O=S(=O)(c1ccc(Cl)cc1)N1CCCCC1c1ccc(F)c(Br)c1 (single isomer, unassigned) [compound 446]"
  EC50: "> 2100 nM"
- molecule: "CC1CCN(S(=O)(=O)c2ccc(Cl)cc2)C1c1ccc(F)c(Cl)c1 (mixture of isomers)"
  EC50: "700 to 2100 nM"
- molecule: "Fc1cc(C2COCCN2c2nc(Cl)ncc2F)cc(C(F)(F)F)c1 (single isomer, unassigned) [Compound 344]"
  EC50: "< 700 nM"
- molecule: "COc1ccc(C2CCCCN2S(=O)(=O)c2ccc(F)cc2)cc1Br (stereo not shown)"
  EC50: "> 2100 nM"

###

# measurement.target: MOR (Homo sapiens, UniProt P35372)
# Sequence (P35372 whole entry): as above
# test.details: cell-based
# experimental.setup: RC50, cAMP; EC20 Oxycodone agonism of MOR
Here the recorded EC50 is given for each entry.
value.type: EC50

- molecule: "Fc1cnc(Cl)nc1N1CCCCC1c1cccc(C(F)(F)F)c1 (single isomer, unassigned) [compound 9]"
  result: "3180 nM"
- molecule: "Fc1cnc(Cl)nc1N1CCCCC1c1cccc(C(F)(F)F)n1 (centres unmarked)"
  result: "> 25000 nM"
- molecule: "COc1ccc(C2CCCCN2S(=O)(=O)c2ccc(Cl)cc2)cc1Br (single isomer, unassigned)"
  result: "320 nM"
- molecule: "Fc1ccc(Cl)cc1CN1CCCCC1c1cccc(C(F)(F)F)n1 (centres unmarked)"
  result: "> 25000 nM"
- molecule: "Fc1cnc(Cl)nc1N1CCCCC1c1cccc(C(F)(F)F)c1 (single isomer, unassigned) [compound 8]"
  result: "1910 nM"
